- method-summary: Plasma stability assay (UPLC/MS)
- Format: in vitro ADME
- recorded-conditions: rat, 37°C, short incubation times
value-kind: half-life at 0.156 mM (min)
Your answer should be a plain number; it is taken to be in min.

{"compound": "CC[C@H](C)[C@H](NC(=O)[C@H](Cc1ccc(O)cc1)NC(=O)[C@@H]1CCCN1C(=O)[C@H](CCCNC(=N)N)NC(=O)[C@@H](N)CCCNC(=N)N)C(=O)N[C@@H](CC(C)C)C(=O)O [NT(8-13), H-Arg-Arg-Pro-Tyr-Ile-Leu-OH, reference compound]", "unit-text": "min", "assay-value": 1}

With those in mind, consider the next compound.
IN: // half-life at 0.156 mM lookup, key: CC[C@H](C)[C@H](NC(=O)[C@H](Cc1ccc(O)cc1)NC(=O)[C@@H]1CCCN1C(=O)[C@H](CCCCN)NC(=O)[C@@H](N)CCCCN)C(=O)N[C@@H](CC(C)C)C(=O)O
OUT: 1.6

###

- assay-target: hNTS1 (Homo sapiens)
- Sequence (P30989 whole entry): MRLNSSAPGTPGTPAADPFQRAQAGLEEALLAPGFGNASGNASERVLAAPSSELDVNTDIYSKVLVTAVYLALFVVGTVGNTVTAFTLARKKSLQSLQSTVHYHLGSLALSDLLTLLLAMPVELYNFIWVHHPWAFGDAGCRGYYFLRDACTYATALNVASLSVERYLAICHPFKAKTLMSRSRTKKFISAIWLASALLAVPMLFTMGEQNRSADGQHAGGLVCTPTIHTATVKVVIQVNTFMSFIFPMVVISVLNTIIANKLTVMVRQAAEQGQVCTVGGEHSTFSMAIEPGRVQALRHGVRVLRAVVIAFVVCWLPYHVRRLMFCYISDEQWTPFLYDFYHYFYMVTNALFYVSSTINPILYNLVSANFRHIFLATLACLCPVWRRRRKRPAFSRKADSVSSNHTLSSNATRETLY
- method-summary: Competitive radioligand binding assay, 125I-[Tyr3]-NT displacement, CHO-K1 cell membranes
- Protocol: All media and additives are from Wisent (St-Bruno, QC). […] After 1 h of incubation at room temperature, the binding reaction mixture was transferred in polyethylenimine-coated 96-well-filter plates (Millipore, Billerica, MA). Reaction was terminated by filtration, and plates were washed three times with 200 μl of ice-cold binding buffer. […]
Numbered stars: 1 amine (or outer) side, 2 acyl side, 3 side chain; on linkers, the order of the positions; unused ones are H or OH. Square brackets hold non-standard residues; d marks the D form. Peptide text beside a SMILES is read from it. Ala(SiMe3) = C[Si](C)(C)C[C@H](N)C(=O)O; X2 = C[Si]1(C)CC(C(=O)[*:2])N([*:1])C1
value-kind: pKi
The meaning of pKi here: minus log10 of the concentration in molar units.

{"compound": "CC[C@H](C)[C@H](NC(=O)[C@H](Cc1ccc(O)cc1)NC(=O)C1C[Si](C)(C)CN1C(=O)[C@H](CCCCN)NC(=O)[C@@H](N)CCCCN)C(=O)N[C@@H](C[Si](C)(C)C)C(=O)O (stereo partly drawn) [Compound 7, H-Lys-Lys-Sip-Tyr-Ile-TMSAla-OH] (H-KK[X2]YI[Ala(SiMe3)]-OH)", "pKi": 7.26}

With those in mind, consider the next compound.
IN: // pKi lookup, key: CC[C@H](C)[C@H](NC(=O)[C@H](Cc1ccc(O)cc1)NC(=O)C1C[Si](C)(C)CN1C(=O)[C@H](CCCCN)NC[C@@H](N)CCCCN)C(=O)N[C@@H](CC(C)C)C(=O)O (stereo partly drawn) [Compound 6, H-Lysψ[CH2NH]Lys-Sip-Tyr-Ile-Leu-OH]
OUT: 6.52
